# test.method.notes: qHTS Assay for Lipid Storage Modulators (AID 1519)
# recorded.conditions: Drosophila S3 cells, BODIPY lipid droplet/cell ratio, laser cytometry; measured here: lipid channel max response; cells loaded with oleic acid
Records with an inconclusive call do not appear.
max response: recorded values
reported.property: max response (%)

compound_structure_string=O=c1c(-c2cc(F)cc(F)c2)nc2cnc(N3CCOCC3)nc2n1Cc1cccs1 readout_units=% recorded_measurement=23.4
compound_structure_string=COc1ccccc1CNc1ncnc2ccc(-c3ccccc3CN(C)C)cc12 readout_units=% recorded_measurement=3.46
compound_structure_string=COc1ccccc1-c1cncnc1Nc1ccc(F)cc1 readout_units=% recorded_measurement=20.1
compound_structure_string=Cn1cc(-c2nc3cnc(N4CCNCC4)nc3n(C)c2=O)c2ccccc21 readout_units=% recorded_measurement=17.7
compound_structure_string=COc1ccc(-n2c(=O)c(-c3cn(C)c4ccccc34)nc3cnc(N4CCOCC4)nc32)cc1 readout_units=% recorded_measurement=9.94
compound_structure_string=Clc1ccccc1-c1nc(N2CCNCC2)c2ccccc2n1 readout_units=% recorded_measurement=12
compound_structure_string=c1cncc(CNc2ncnc3ccc(-c4cccnc4)cc23)c1 readout_units=% recorded_measurement=-4.35
compound_structure_string=O=c1cnc2cnc(Oc3cccc(Cl)c3)nc2n1Cc1ccc(F)cc1 readout_units=% recorded_measurement=21.6
compound_structure_string=Cc1cccc(CNc2ncnc3ccc(-c4cccc(C#N)c4)cc23)c1 readout_units=% recorded_measurement=-19.2
compound_structure_string=Fc1ccc(Nc2ccnc(-c3ccoc3)n2)cc1 readout_units=% recorded_measurement=17.6
compound_structure_string=O=C(Nc1cccc(F)c1)N1CC[C@@]2(CCCN(C(=O)c3ccco3)C2)C1 readout_units=% recorded_measurement=-1.46

Origin of the recorded values: PubChem BioAssay (NCATS)
